Target: UniProt:P31652
Sequence (P31652 whole entry): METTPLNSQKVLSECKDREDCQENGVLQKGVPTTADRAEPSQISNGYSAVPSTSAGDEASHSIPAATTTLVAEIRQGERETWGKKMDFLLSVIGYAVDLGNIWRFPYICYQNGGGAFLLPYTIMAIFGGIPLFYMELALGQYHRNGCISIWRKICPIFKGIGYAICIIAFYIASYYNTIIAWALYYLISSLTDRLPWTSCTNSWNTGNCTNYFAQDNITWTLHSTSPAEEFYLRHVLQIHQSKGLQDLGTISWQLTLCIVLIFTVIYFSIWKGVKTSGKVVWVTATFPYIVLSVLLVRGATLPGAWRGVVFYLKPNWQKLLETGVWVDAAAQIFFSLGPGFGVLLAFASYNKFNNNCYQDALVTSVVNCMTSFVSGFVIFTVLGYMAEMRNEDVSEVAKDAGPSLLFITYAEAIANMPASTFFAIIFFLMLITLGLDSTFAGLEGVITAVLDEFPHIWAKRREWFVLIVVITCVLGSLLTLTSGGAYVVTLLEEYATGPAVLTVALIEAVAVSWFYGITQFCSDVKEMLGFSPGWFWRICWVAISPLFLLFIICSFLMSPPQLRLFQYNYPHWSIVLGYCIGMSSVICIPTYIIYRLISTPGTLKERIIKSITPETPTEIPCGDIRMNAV
pKi: −log10 of the molar value.
# if value of pKi reaches 9, tag Met; if it stays below, tag Not met

Field: example entries. Status: answers known.
> print(dat)
                                   molecule  assigned.class
1  CNCc1cc(CCCCN2CCN(C(C)C)CC2)ccc1Oc1ccc(SC)cc1 [Example 33]             Met
2  CNCc1cc(C#CCCN2CCC(F)CC2)ccc1Oc1ccc(Cl)c(Cl)c1 [Example 29]         Not met

QUERY: Is pKi at least 9? Consider CNCc1cc(C#CCCN2CCOCC2)ccc1Oc1ccc(C(F)(F)F)cc1 [Example 7]
RESULT: Not met

----------
Let's go through some recorded log10(Ki) values for human H3 receptor (Homo sapiens, UniProt Q9Y5N1) together.
Scale: log10; quantity: Ki; unit before log: nM

> print(dat)
                                   compound  quantity.name  readout.number
1  CNCc1cc(C#CCCN(C2CC2)C2CC2)ccc1Oc1ccc(Cl)c(Cl)c1 [Example 17]      log10(Ki)            2.00
2  CNCc1cc(CCCCN2CCN(C3CC3)CC2)ccc1Oc1ccc(SC)cc1 [Example 32]      log10(Ki)            0.67
3  CNCc1cc(C#CCCN2CCN(C(C)C)CC2)ccc1Oc1ccc(SC)cc1 [Example 10]      log10(Ki)            1.49
4  CNCc1cc(C#CCCN2CCOCC2)ccc1Oc1ccc(Cl)c(C(F)(F)F)c1 [Example 27]      log10(Ki)            1.11
5  CNCc1cc(C#CCCN2CCOCC2)ccc1Oc1ccc(C(F)(F)F)cc1 [Example 7]      log10(Ki)            0.86
6  CNCc1cc(C#CCCNC2CC2)ccc1Oc1ccc(SC)cc1 [Example 14]      log10(Ki)            1.23
7  CNCc1cc(C#CCCN2CCOCC2)ccc1Oc1ccccn1 [Example 30]      log10(Ki)            0.78
8  C(#Cc1ccc(Oc2cccnc2)c(CNC2CC2)c1)CCN1CCOCC1 [Example 23]      log10(Ki)           -0.15

QUERY: What value of log10(Ki) has been recorded for this entry: CNCc1cc(C#CCCN(C)C2CC2)ccc1Oc1ccc(SC)cc1 [Example 16]
RESULT: 0.79

QUERY: What value of log10(Ki) has been recorded for this entry: CNCc1cc(C#CCCN2CCSCC2)ccc1Oc1ccc(SC)cc1 [Example 9]
RESULT: 0.73

----------
Molecular target: human SERT (Homo sapiens)
Sequence (P31645 whole entry): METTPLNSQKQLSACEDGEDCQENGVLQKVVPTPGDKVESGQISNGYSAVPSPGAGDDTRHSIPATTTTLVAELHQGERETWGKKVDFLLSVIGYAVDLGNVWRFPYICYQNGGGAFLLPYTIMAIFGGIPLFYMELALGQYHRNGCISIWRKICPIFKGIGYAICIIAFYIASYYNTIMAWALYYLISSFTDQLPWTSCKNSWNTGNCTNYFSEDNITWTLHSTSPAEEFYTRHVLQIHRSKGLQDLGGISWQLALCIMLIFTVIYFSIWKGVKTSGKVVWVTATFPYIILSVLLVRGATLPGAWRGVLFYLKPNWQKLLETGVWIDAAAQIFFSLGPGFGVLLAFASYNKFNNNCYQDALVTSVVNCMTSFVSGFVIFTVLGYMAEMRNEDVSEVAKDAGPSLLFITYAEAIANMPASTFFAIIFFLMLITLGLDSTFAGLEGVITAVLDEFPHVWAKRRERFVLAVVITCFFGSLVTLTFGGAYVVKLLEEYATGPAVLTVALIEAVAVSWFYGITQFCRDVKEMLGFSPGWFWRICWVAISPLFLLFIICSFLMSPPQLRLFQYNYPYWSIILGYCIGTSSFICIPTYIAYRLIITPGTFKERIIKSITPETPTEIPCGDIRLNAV
pKi: −log10 of the molar value.
# if value of pKi reaches 8, tag label 1; if it stays below, tag label 0

> print(dat)
                                test.smiles  assigned.class
1    CNCc1cc(C#CCCN2CCOCC2)ccc1Oc1ccc(C)nc1         label 1
2  CNCc1cc(C#CCCN2CCC(F)CC2)ccc1Oc1ccc(SC)cc1         label 1
3       CNCc1cc(C#CCCN2CCOCC2)ccc1Oc1ccccc1         label 0
4  CNCc1cc(CCCCN2CCN(C3CC3)CC2)ccc1Oc1ccc(SC)cc1         label 1
5  CNCc1cc(C#CCCN2CCC(F)CC2)ccc1Oc1ccc(Cl)c(Cl)c1         label 0

QUERY: Is pKi at least 8? Consider "CNCc1ccc(C#CCCN2CCOCC2)cc1Oc1ccc(SC)cc1"
RESULT: label 1

QUERY: Is pKi at least 8? Consider "CNCc1cc(C#CCCN2CCCN(C(C)C)CC2)ccc1Oc1ccc(SC)cc1"
RESULT: label 1

QUERY: Is pKi at least 8? Consider "CNCc1cc(CCCCN2CCSCC2)ccc1Oc1ccc(SC)cc1"
RESULT: label 1

----------
Let's go through some recorded pKi values for human H3 receptor (Homo sapiens) together.
To interpret pKi, take it as minus log10 of a concentration measured in moles per litre.

Sample answers from the record:
> print(dat)
                                   compound                            target  quantity.name  readout.number
1  CNCc1cc(C#CCCN2CCOCC2)ccc1Oc1cccc(Cl)c1 [Example 12]  human H3 receptor (Homo sapiens)            pKi            8.52
2  CNCc1cc(C#CCCN2CCSCC2)ccc1Oc1ccc(Cl)c(Cl)c1 [Example 26]  human H3 receptor (Homo sapiens)            pKi            7.89

QUERY: Could you share what pKi was measured for CNCc1cc(C#CCCN2CCCN(C(C)C)CC2)ccc1Oc1ccc(SC)cc1 [Example 20] , tested on human H3 receptor (Homo sapiens)?
RESULT: 7.03

QUERY: Could you share what pKi was measured for CNCc1cc(C#CCCN(C)C2CC2)ccc1Oc1ccc(Cl)c(Cl)c1 [Example 18] , tested on human H3 receptor (Homo sapiens)?
RESULT: 8.01

QUERY: Could you share what pKi was measured for CNCc1cc(C#CCCN2CCC(F)CC2)ccc1Oc1ccc(SC)cc1 [Example 11] , tested on human H3 receptor (Homo sapiens)?
RESULT: 8.22

QUERY: Could you share what pKi was measured for CNCc1cc(C#CCCN2CCNC(=O)C2)ccc1Oc1ccc(SC)cc1 [Example 19] , tested on human H3 receptor (Homo sapiens)?
RESULT: 6.06

QUERY: Could you share what pKi was measured for CNCc1cc(CCCCN2CCSCC2)ccc1Oc1ccc(SC)cc1 [Example 34] , tested on human H3 receptor (Homo sapiens)?
RESULT: 8.01

QUERY: Could you share what pKi was measured for CNCc1cc(C#CCCN2CCOCC2)ccc1Oc1cccc(F)c1 [Example 8] , tested on human H3 receptor (Homo sapiens)?
RESULT: 8.52

QUERY: Could you share what pKi was measured for CNCc1cc(C#CCCN2CCOCC2)ccc1Oc1ccc(F)cc1Cl [Example 28] , tested on human H3 receptor (Homo sapiens)?
RESULT: 8.22

----------
Let's go through some recorded Ki values for UniProt:P31645 together.
Report as a plain number; the unit nM is understood.

Sample answers from the record:
> print(dat)
                                   compound          target  quantity.name  readout.number
1  CNCc1cc(CCCCN2CCN(C(C)C)CC2)ccc1Oc1ccc(SC)cc1 [Example 33]  UniProt:P31645             Ki             1.4
2  CNCc1cc(C#CCCN2CCOCC2)ccc1Oc1ccc(F)cc1Cl [Example 28]  UniProt:P31645             Ki             3.6

QUERY: What value of Ki has been recorded for this entry: CNCc1cc(C#CCCN2CCNC(=O)C2)ccc1Oc1ccc(SC)cc1 [Example 19]
RESULT: 1.6

QUERY: What value of Ki has been recorded for this entry: CNCc1cc(C#CCCN2CCSCC2)ccc1Oc1ccc(Cl)c(Cl)c1 [Example 26]
RESULT: 6.7

QUERY: What value of Ki has been recorded for this entry: CNCc1cc(C#CCCN2CCOCC2)ccc1Oc1ccc(Cl)c(C(F)(F)F)c1 [Example 27]
RESULT: 17

QUERY: What value of Ki has been recorded for this entry: CNCc1cc(C#CCCN2CCN(C(C)C)CC2)ccc1Oc1ccc(SC)cc1 [Example 10]
RESULT: 13

----------
Molecular target: UniProt:P31652
Friendly reminder: Ki below 7 nM is true, at or above is false.

Field: example entries. Status: answers known.
> print(dat)
                                test.smiles  assigned.class
1  CNCc1cc(C#CCCN2CCOCC2)ccc1Oc1ccc(F)cc1Cl            true
2  CNCc1cc(C#CCCN2CCOCC2)ccc1Oc1ccc(Cl)c(Cl)c1            true
3  CNCc1cc(C#CCCN(C)C2CC2)ccc1Oc1ccc(SC)cc1            true

QUERY: Below 7 nM on Ki? Entry "CNCc1cc(C#CCCN2CCOCC2)ccc1Sc1cc(C(F)(F)F)ccn1"
RESULT: false

QUERY: Below 7 nM on Ki? Entry "CNCc1cc(C#CCCN2CCOCC2)ccc1Oc1ccc(Cl)c(C(F)(F)F)c1"
RESULT: false

QUERY: Below 7 nM on Ki? Entry "CNCc1cc(C#CCCN2CCOCC2)ccc1Oc1ccccn1"
RESULT: false

QUERY: Below 7 nM on Ki? Entry "CNCc1cc(CCCCN2CCN(C3CC3)CC2)ccc1Oc1ccc(SC)cc1"
RESULT: true

QUERY: Below 7 nM on Ki? Entry "CNCc1cc(C#CCCN2CCOCC2)ccc1Oc1ccccc1"
RESULT: false

QUERY: Below 7 nM on Ki? Entry "CNCc1cc(C#CCCN2CCC(F)CC2)ccc1Oc1ccc(SC)cc1"
RESULT: true
